Target: IKZF2 (Homo sapiens (Human), UniProt Q96SW2+Q9UKS7)
Sequence (Q9UKS7 whole entry, one chain of several): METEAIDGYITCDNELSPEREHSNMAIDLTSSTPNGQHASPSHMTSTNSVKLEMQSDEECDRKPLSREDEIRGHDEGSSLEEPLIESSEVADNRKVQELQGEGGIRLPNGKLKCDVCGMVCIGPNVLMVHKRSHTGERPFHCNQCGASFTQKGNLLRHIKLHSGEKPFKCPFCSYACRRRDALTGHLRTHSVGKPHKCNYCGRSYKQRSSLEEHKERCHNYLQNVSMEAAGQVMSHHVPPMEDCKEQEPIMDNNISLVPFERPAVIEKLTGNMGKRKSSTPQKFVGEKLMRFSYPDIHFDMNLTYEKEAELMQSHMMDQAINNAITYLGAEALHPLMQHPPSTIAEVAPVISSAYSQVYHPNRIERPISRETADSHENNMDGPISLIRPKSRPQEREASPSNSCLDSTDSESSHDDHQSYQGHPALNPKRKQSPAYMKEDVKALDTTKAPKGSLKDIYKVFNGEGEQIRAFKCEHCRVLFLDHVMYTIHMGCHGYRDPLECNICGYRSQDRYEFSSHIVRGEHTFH
Sequence (Q16531 whole entry partner, one chain of several): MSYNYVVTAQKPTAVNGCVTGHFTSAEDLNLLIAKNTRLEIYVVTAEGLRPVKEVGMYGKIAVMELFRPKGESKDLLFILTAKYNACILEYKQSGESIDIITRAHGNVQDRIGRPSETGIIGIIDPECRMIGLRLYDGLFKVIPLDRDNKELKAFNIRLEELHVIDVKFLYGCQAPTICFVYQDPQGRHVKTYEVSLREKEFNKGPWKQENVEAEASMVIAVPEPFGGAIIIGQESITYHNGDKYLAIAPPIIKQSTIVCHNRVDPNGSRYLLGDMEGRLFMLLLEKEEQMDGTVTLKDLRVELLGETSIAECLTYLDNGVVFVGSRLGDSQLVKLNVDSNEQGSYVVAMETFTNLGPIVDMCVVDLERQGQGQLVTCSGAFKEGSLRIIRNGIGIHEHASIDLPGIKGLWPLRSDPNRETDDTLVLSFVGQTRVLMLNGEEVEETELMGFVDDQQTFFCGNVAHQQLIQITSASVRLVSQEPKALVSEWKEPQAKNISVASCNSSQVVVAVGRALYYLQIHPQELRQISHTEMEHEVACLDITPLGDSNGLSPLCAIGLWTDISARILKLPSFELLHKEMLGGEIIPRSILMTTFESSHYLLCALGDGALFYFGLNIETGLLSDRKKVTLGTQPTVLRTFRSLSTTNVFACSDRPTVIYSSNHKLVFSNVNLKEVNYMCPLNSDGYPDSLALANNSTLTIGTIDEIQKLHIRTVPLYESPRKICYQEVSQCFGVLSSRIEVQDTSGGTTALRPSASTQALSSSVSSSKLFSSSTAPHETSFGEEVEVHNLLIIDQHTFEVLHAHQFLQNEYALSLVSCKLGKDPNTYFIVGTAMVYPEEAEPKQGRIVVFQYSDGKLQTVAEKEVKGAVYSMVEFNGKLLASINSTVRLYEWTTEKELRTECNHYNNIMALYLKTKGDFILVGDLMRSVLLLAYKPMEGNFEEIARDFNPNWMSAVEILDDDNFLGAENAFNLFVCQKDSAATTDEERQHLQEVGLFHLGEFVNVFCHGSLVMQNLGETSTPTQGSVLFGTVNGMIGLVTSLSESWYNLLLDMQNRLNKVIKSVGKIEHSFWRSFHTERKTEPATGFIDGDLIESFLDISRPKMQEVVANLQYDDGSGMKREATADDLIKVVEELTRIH
Assay: IKZF2 HiBiT Assay (Jurkat-IKZF2-HiBiT cell line)
Assay type: cell-based
Settings: Jurkat-IKZF2-HiBiT cells, 24 hours; read-out: HiBit assay degradation analysis Dmax
Kindly supply the reported Dmax values for the records listed here.

Below, 5 molecules whose answers are already recorded.
>>> result("O=C1CCC(N2Cc3c(ccc4c3OCC43CCN(Cc4cccs4)CC3)C2=O)C(=O)N1 (centres unmarked)")
"40 to 60%"
>>> result("O=C1CCC(N2Cc3c(ccc4c3OCC43CCN(CC4(c5ccccc5)CCC4)CC3)C2=O)C(=O)N1 (centres unmarked)")
"40 to 60%"
>>> result("O=C1CCC(N2Cc3c(ccc4c3OCC43CCN(Cc4c(F)ccc5[nH]ccc45)CC3)C2=O)C(=O)N1 (centres unmarked)")
"60 to 80%"
>>> result("O=C1CC[C@H](N2Cc3c(ccc4c3OCC43CCN(C[C@@H]4C[C@H]4c4ccc(F)cc4)CC3)C2=O)C(=O)N1")
"40 to 60%"
>>> result("CC(C)(C)c1cccc(CN2CCC3(CC2)COc2c3ccc3c2CN(C2CCC(=O)NC2=O)C3=O)c1 (centres unmarked)")
"< 40%"

Please state, for each entry, its recorded Dmax.
1. O=C1CCC(N2Cc3c(ccc4c3OCC43CCN(Cc4cccc5c4OCCO5)CC3)C2=O)C(=O)N1 (centres unmarked)
2. Cc1nnc(-c2cccc(CN3CCC4(CC3)COc3c4ccc4c3CN(C3CCC(=O)NC3=O)C4=O)c2)o1 (centres unmarked)
3. O=C1CCC(N2Cc3c(ccc4c3OCC43CCN(Cc4cccc5c4OCO5)CC3)C2=O)C(=O)N1 (centres unmarked)
4. CS(=O)(=O)c1cccc(CN2CCC3(CC2)COc2c3ccc3c2CN(C2CCC(=O)NC2=O)C3=O)c1 (centres unmarked)

Solution:
["60 to 80%", "40 to 60%", "40 to 60%", "< 40%"]

Please state, for each entry, its recorded Dmax.
1. [2H]C([2H])([2H])n1cc2ccc(CN3CCC4(CC3)COc3c4ccc4c3CN([C@H]3CCC(=O)NC3=O)C4=O)cc2n1
2. O=C1CCC(N2Cc3c(ccc4c3OCC43CCN(Cc4cc(Cl)cc5[nH]ncc45)CC3)C2=O)C(=O)N1 (centres unmarked)
3. O=C1CCC(N2Cc3c(ccc4c3OCC43CCN(Cc4cccc(-c5cnn(C6CC6)c5)c4)CC3)C2=O)C(=O)N1 (centres unmarked)
4. CS(=O)(=O)c1ccccc1CN1CCC2(CC1)COc1c2ccc2c1CN(C1CCC(=O)NC1=O)C2=O (centres unmarked)
5. O=C1CCC(N2Cc3c(ccc4c3OCC43CCN(Cc4cccc(NC(=O)c5ccc(Cl)cc5)c4)CC3)C2=O)C(=O)N1 (centres unmarked)

Solution:
60 to 80%
40 to 60%
60 to 80%
< 40%
> 80%

----------
Molecular target: GST-tagged wild-type human CRBN protein (Homo sapiens (Human))
Sequence (Q96SW2 whole entry): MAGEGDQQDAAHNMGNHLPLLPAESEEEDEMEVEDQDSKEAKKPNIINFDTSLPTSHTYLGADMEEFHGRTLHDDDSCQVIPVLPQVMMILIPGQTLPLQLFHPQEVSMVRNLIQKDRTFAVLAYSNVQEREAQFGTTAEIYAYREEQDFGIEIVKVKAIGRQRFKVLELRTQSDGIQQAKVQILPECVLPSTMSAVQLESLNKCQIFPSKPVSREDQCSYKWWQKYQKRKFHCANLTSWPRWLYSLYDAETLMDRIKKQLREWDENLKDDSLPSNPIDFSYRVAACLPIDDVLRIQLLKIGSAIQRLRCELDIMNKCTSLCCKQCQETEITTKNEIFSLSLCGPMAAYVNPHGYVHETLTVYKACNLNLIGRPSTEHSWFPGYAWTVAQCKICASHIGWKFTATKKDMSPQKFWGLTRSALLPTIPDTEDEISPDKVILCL
Assay: Cereblon Binding Assay (Cisbio Cereblon Binding Kit, TR-FRET)
Conditions: about 3 hours at room temperature
pIC50: −log10 of the molar value.
Reported Endpoint: pIC50

Below, 6 molecules whose answers are already recorded.
>>> result("Cn1cc(-c2cccc(CN3CCC4(CC3)COc3c4ccc4c3CN([C@H]3CCC(=O)NC3=O)C4=O)c2)cn1")
"6.00 to 7.00"
>>> result("Cc1ccc(CN2CCC3(CCOc4c3ccc3c4CN(C4CCC(=O)NC4=O)C3=O)CC2)cc1 (stereo not drawn)")
"7.00 to 8.00"
>>> result("O=C1CCC(N2Cc3c(ccc4c3OCC43CCN(Cc4cccc(F)c4)CC3)C2=O)C(=O)N1 (stereo not drawn)")
"< 6.00"
>>> result("O=C1CCC(N2Cc3c(ccc4c3OCC43CCN(Cc4cccc(-c5cc[nH]n5)c4)CC3)C2=O)C(=O)N1 (stereo not drawn)")
"7.00 to 8.00"
>>> result("O=C1CCC(N2Cc3c(ccc4c3OCC43CCN(Cc4cccc(Cn5cccn5)c4)CC3)C2=O)C(=O)N1 (stereo not drawn)")
"6.00 to 7.00"
>>> result("O=C1CCC(N2Cc3c(ccc4c3OCC43CCN(Cc4cc(Cl)cc5[nH]ncc45)CC3)C2=O)C(=O)N1 (stereo not drawn)")
"6.00 to 7.00"

Please state, for each entry, its recorded pIC50.
1. O=C1CCC(N2Cc3c(ccc4c3OCC43CCN(Cc4cc(Br)cc5[nH]ncc45)CC3)C2=O)C(=O)N1 (stereo not drawn)
2. O=C1CCC(N2Cc3c(ccc4c3OCC43CCN(Cc4cccc(-c5cccnc5)c4)CC3)C2=O)C(=O)N1 (stereo not drawn)
3. O=C1CCC(N2Cc3c(ccc4c3OCC43CCNCC3)C2=O)C(=O)N1 (stereo not drawn)
4. O=C1CCC(N2Cc3c(ccc4c3OCC43CCN(Cc4ccc5c(c4)NC(=O)C5)CC3)C2=O)C(=O)N1 (stereo not drawn)
5. O=C1CCC(N2Cc3c(ccc4c3OCC43CCN(Cc4cccc5[nH]ccc45)CC3)C2=O)C(=O)N1 (stereo not drawn)
6. O=C1CCC(N2Cc3c(ccc4c3OCC43CCN(Cc4cccc(-c5cnco5)c4)CC3)C2=O)C(=O)N1 (stereo not drawn)
7. O=C1CCC(N2Cc3c(ccc4c3OCC43CCN(Cc4ccc5ccoc5c4)CC3)C2=O)C(=O)N1 (stereo not drawn)

Solution:
1: 6.00 to 7.00; 2: 6.00 to 7.00; 3: < 6.00; 4: 6.00 to 7.00; 5: 6.00 to 7.00; 6: 6.00 to 7.00; 7: 6.00 to 7.00

Please state, for each entry, its recorded pIC50.
1. CCc1ccc(CN2CCC3(CCOc4c3ccc3c4CN(C4CCC(=O)NC4=O)C3=O)CC2)cc1 (stereo not drawn)
2. O=C1CCC(N2Cc3c(ccc4c3OCC43CCN(Cc4ccc5c(c4)C(=O)NC5)CC3)C2=O)C(=O)N1 (stereo not drawn)

Solution:
7.00 to 8.00
6.00 to 7.00

Data origin, for the record: patent US20250215012A1
